Test: First-in-human trial: pharmacokinetics in plasma and urine
Type: in vivo
Details: human, plasma, oral, 65 mg, Schedule 1, 65 mg, Day 3, N=3; median (range); read-out: T1/2 (converted)
MEASURED_QUANTITY: half-life (h)
Express your answer in h, writing the number without its unit.

Ask | Record request: half-life value, item COc1cccc2cc(-c3nc([C@H]4CC[C@H](C(=O)O)CC4)n4ncnc(N)c34)[nH]c12
Reply | 8.46

====

Assay: First-in-human trial: pharmacokinetics in plasma and urine
Type: in vivo
Conditions: human, plasma, oral, 10 mg, Schedule 3, 10 mg, Day 1, N=3; median (range)
MEASURED_QUANTITY: AUC(0-inf) (ng·h/mL)
Write it as a number; the unit ng·h/mL goes unstated.

Ask | Entry under review: COc1cccc2cc(-c3nc([C@H]4CC[C@H](C(=O)O)CC4)n4ncnc(N)c34)[nH]c12 . Reported AUC(0-inf)?
Reply | 4300

====

Experiment: First-in-human trial: pharmacokinetics in plasma and urine
Assay type: in vivo
Conditions: human, plasma, oral, 160 mg, Schedule 2, 160 mg, N=3; median (range)
Protocol: Blood and urine samples were collected at prespecified time points for 24 h after initial dose and at days 2–3 (S2) and after multiple doses on days 3–4 (S1) and 22–23 (S3) across dose levels. Predose samples were collected on days 8, 15 and 22. […] Descriptive statistics were used to summarise the safety data, including all patients who received at least one dose of OSI-027. […] Response to treatment was evaluated according to Response Evaluation Criteria in Solid Tumors (RECIST) ([Therasse et al, 2000]).
MEASURED_QUANTITY: Cmax (ng/mL)
Give a bare numeral; the unit ng/mL is implied.

Ask | Report Cmax for COc1cccc2cc(-c3nc([C@H]4CC[C@H](C(=O)O)CC4)n4ncnc(N)c34)[nH]c12 [OSI-027] please.
Reply | 7620

====

Assay: First-in-human trial: pharmacokinetics in plasma and urine
Format: in vivo
Details: human, plasma, oral, 40 mg, Schedule 3, 40mg, Day 22, N=4; median (range)
Description: Blood and urine samples were collected at prespecified time points for 24 h after initial dose and at days 2–3 (S2) and after multiple doses on days 3–4 (S1) and 22–23 (S3) across dose levels. Predose samples were collected on days 8, 15 and 22. […] Descriptive statistics were used to summarise the safety data, including all patients who received at least one dose of OSI-027. […] Response to treatment was evaluated according to Response Evaluation Criteria in Solid Tumors (RECIST) ([Therasse et al, 2000]).
MEASURED_QUANTITY: Cmax (ng/mL)
Only the number, expressed in ng/mL, is required.

Ask | Entry under review: COc1cccc2cc(-c3nc([C@H]4CC[C@H](C(=O)O)CC4)n4ncnc(N)c34)[nH]c12 [OSI-027] . Reported Cmax?
Reply | 3000

====

Assay: First-in-human trial: pharmacokinetics in plasma and urine
Format: in vivo
Details: human, plasma, oral, 20 mg, Schedule 3, 20 mg, Day 1, N=6; median (range); read-out: T1/2 (converted)
MEASURED_QUANTITY: half-life (h)
Respond with the bare value in h.

Ask | Which value of half-life has been reported for COc1cccc2cc(-c3nc([C@H]4CC[C@H](C(=O)O)CC4)n4ncnc(N)c34)[nH]c12 in the records?
Reply | 7.03

====

Assay: First-in-human trial: pharmacokinetics in plasma and urine
Format: in vivo
Details: human, plasma, oral, 35 mg, Schedule 3, 35 mg, Day 22, N=4; median (range); read-out: AUC24hr
MEASURED_QUANTITY: AUC(0-t) (ng·h/mL)
Enter your answer as a number in ng·h/mL; do not include the unit.

Ask | Which AUC(0-t) reading was recorded for the molecule COc1cccc2cc(-c3nc([C@H]4CC[C@H](C(=O)O)CC4)n4ncnc(N)c34)[nH]c12 ?
Reply | 31200

====

Test: First-in-human trial: pharmacokinetics in plasma and urine
Assay type: in vivo
Settings: human, plasma, oral, 160 mg, Schedule 1, 160 mg, Day 3, N=5; median (range); read-out: AUC24hr
MEASURED_QUANTITY: AUC(0-t)
Please state the number and follow it with the unit.

Ask | Can you share its AUC(0-t)? I mean this molecule: COc1cccc2cc(-c3nc([C@H]4CC[C@H](C(=O)O)CC4)n4ncnc(N)c34)[nH]c12 [OSI-027]
Reply | 106 µg·h/mL

====

Assay: First-in-human trial: pharmacokinetics in plasma and urine
Format: in vivo
Settings: human, plasma, oral, 20 mg, Schedule 1, 20 mg, Day 1, N=4; median (range)
MEASURED_QUANTITY: Cmax (ng/mL)
Quick note: give the figure in ng/mL, leave out the unit.

Ask | What measured Cmax goes with COc1cccc2cc(-c3nc([C@H]4CC[C@H](C(=O)O)CC4)n4ncnc(N)c34)[nH]c12 ?
Reply | 804

====

Test: First-in-human trial: pharmacokinetics in plasma and urine
Type: in vivo
Conditions: human, plasma, oral, 20 mg, Schedule 1, 20 mg, Day 3, N=4; median (range)
MEASURED_QUANTITY: Cmax (ng/mL)
A number alone suffices; assume ng/mL.

Ask | GET /values?readout=Cmax&item= COc1cccc2cc(-c3nc([C@H]4CC[C@H](C(=O)O)CC4)n4ncnc(N)c34)[nH]c12 [OSI-027]
Reply | 1350

====

Test: First-in-human trial: pharmacokinetics in plasma and urine
Type: in vivo
Details: human, plasma, oral, 45 mg, Schedule 1, 45 mg, Day 1, N=3; median (range)
MEASURED_QUANTITY: AUC(0-inf) (ng·h/mL)
Answer format: numeric, ng·h/mL implied, no suffix.

Ask | Any idea what its AUC(0-inf) is? The compound is COc1cccc2cc(-c3nc([C@H]4CC[C@H](C(=O)O)CC4)n4ncnc(N)c34)[nH]c12 [OSI-027]
Reply | 31100

====

Assay: First-in-human trial: pharmacokinetics in plasma and urine
Assay type: in vivo
Settings: human, plasma, oral, 20 mg, Schedule 3, 20 mg, Day 22, N=5; median (range); read-out: AUC24hr
MEASURED_QUANTITY: AUC(0-t) (ng·h/mL)
Response body: numeric value in ng·h/mL, unit text excluded.

Ask | Reported AUC(0-t), molecule COc1cccc2cc(-c3nc([C@H]4CC[C@H](C(=O)O)CC4)n4ncnc(N)c34)[nH]c12 : ____
Reply | 13700

====

Test: First-in-human trial: pharmacokinetics in plasma and urine
Assay type: in vivo
Conditions: human, plasma, oral, 5 mg, Schedule 3, 5 mg, Day 22, N=3; median (range)
MEASURED_QUANTITY: Cmax (ng/mL)
Report the value in ng/mL with no unit label.

Ask | Fill blank: measured Cmax of the molecule COc1cccc2cc(-c3nc([C@H]4CC[C@H](C(=O)O)CC4)n4ncnc(N)c34)[nH]c12 is ____.
Reply | 266

====

Test: First-in-human trial: pharmacokinetics in plasma and urine
Assay type: in vivo
Details: human, plasma, oral, 50 mg, Schedule 3, 50 mg, Day 22, N=1; read-out: AUC24hr
Description: Blood and urine samples were collected at prespecified time points for 24 h after initial dose and at days 2–3 (S2) and after multiple doses on days 3–4 (S1) and 22–23 (S3) across dose levels. Predose samples were collected on days 8, 15 and 22. […] Descriptive statistics were used to summarise the safety data, including all patients who received at least one dose of OSI-027. […] Response to treatment was evaluated according to Response Evaluation Criteria in Solid Tumors (RECIST) ([Therasse et al, 2000]).
MEASURED_QUANTITY: AUC(0-t) (ng·h/mL)
Answer with a number only, understood to be in ng·h/mL.

Ask | So what's the measured AUC(0-t) for this one? COc1cccc2cc(-c3nc([C@H]4CC[C@H](C(=O)O)CC4)n4ncnc(N)c34)[nH]c12
Reply | 17200

====

Assay: First-in-human trial: pharmacokinetics in plasma and urine
Type: in vivo
Conditions: human, plasma, oral, 20 mg, Schedule 1, 20 mg, Day 1, N=4; median (range)
MEASURED_QUANTITY: AUC(0-inf) (ng·h/mL)
Write it as a number; the unit ng·h/mL goes unstated.

Ask | GET /values?readout=AUC(0-inf)&item= COc1cccc2cc(-c3nc([C@H]4CC[C@H](C(=O)O)CC4)n4ncnc(N)c34)[nH]c12
Reply | 5780

====

Test: First-in-human trial: pharmacokinetics in plasma and urine
Type: in vivo
Conditions: human, plasma, oral, 15 mg, Schedule 2, 15 mg, N=7; median (range); read-out: T1/2 (converted)
Procedure: Blood and urine samples were collected at prespecified time points for 24 h after initial dose and at days 2–3 (S2) and after multiple doses on days 3–4 (S1) and 22–23 (S3) across dose levels. Predose samples were collected on days 8, 15 and 22. […] Descriptive statistics were used to summarise the safety data, including all patients who received at least one dose of OSI-027. […] Response to treatment was evaluated according to Response Evaluation Criteria in Solid Tumors (RECIST) ([Therasse et al, 2000]).
MEASURED_QUANTITY: half-life (h)
Field: numeric (h). Do not append units.

Ask | Name the reported half-life value associated with the compound COc1cccc2cc(-c3nc([C@H]4CC[C@H](C(=O)O)CC4)n4ncnc(N)c34)[nH]c12
Reply | 19.3
